Test system: HDAC1
Test: Selectivity index, ratio of IC50 for HDAC1 in human HeLa cells to EC50 for Plasmodium falciparum 3D7 infected human erythrocytes
Format: toxicity, cell-based
Conditions: read-out: Ratio IC50/EC50
attributeMeasured: selectivity ratio

Quick check: selectivity ratio on HDAC1, item `CNC(=O)CCCCC[C@H](NC(=O)c1cncs1)c1ncc(-c2ccc(-c3ccccc3)cc2)[nH]1` ?
> 3.3

Notebook entry, HDAC1 assay: selectivity ratio of `CNC(=O)CCCCC[C@H](NC(=O)c1cncs1)c1ncc(-c2cccc3cccnc23)[nH]1` = ?
> 3

Return selectivity ratio measured with HDAC1 given this molecule: `CNC(=O)CCCCC[C@H](NC(=O)c1cncs1)c1ncc(-c2ccc3[nH]cnc3c2)[nH]1`
> 2.1

Query for HDAC1: what selectivity ratio does the record show for `CNC(=O)CCCCC[C@H](NC(=O)c1cncs1)c1ncc(-c2ccc3[nH]nnc3c2)[nH]1` ?
> 2.5

// fetch HDAC1 selectivity ratio for `CNC(=O)CCCCC[C@H](NC(=O)c1cncs1)c1ncc(-c2ccc3cccnc3c2)[nH]1`
> 6.6
